These measurements were taken from patent US20250206732A1.

Listing: Dmax of selected compounds
- measured.on: AsPC-1 HiBiT-KRASG12D (Homo sapiens, UniProt P01116, G12D)
- Construct: insert the HiBiT tag onto the N-terminus of one or more of the endogenous KRAS alleles; endogenous in cells; host or cells: AsPC-1 (ATCC CRL-1682), CRISPR-Cas9 knock-in clone, one tagged allele
- Sequence (P01116 1-188 isoform P01116-2 G12D): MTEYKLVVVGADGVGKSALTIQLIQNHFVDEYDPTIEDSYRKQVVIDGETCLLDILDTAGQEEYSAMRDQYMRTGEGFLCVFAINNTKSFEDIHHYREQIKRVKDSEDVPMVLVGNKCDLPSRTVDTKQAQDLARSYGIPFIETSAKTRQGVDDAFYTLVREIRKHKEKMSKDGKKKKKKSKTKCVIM
- measurement.protocol: HiBiT degradation assay (G12D), AsPC-1 HiBiT-KRASG12D cells
- Type: cell-based
- run.parameters: ASPC1, AsPC-1 HiBiT-KRASG12D cells, 24 hours treatment, maximum degradation observed

{"compound": "CCc1cccc2cc(O)cc(-c3ncc4c(N5CC6CCC(C5)N6)nc(OCCN5CC[C@@H]6[C@@H](CCN6c6cc([C@H](C(=O)N7C[C@H](O)C[C@H]7C(=O)N[C@@H](C)c7ccc(-c8scnc8C)cc7)C(C)C)on6)C5)nc4c3F)c12 (relative stereo)", "measured.on": "AsPC-1 HiBiT-KRASG12D (Homo sapiens, UniProt P01116, G12D)", "Dmax": "80 to 100%"}
{"compound": "C#Cc1c(F)ccc2cc(O)cc(-c3ncc4c(N5CC6CCC(C5)N6)nc(OCCN5CCC(CC6CN(c7cc([C@@H](C(=O)N8C[C@H](O)C[C@H]8C(=O)N[C@@H](C)c8ccc(-c9scnc9C)cc8)C(C)C)on7)C6)CC5)nc4c3F)c12", "measured.on": "AsPC-1 HiBiT-KRASG12D (Homo sapiens, UniProt P01116, G12D)", "Dmax": "20 to 60%"}
{"compound": "C#Cc1c(F)ccc2cccc(-c3ncc4c(N5CC6CCC(C5)N6)nc(OC[C@]56CCCN5[C@@H](COC(=O)N5CCN(c7cc([C@H](C(=O)N8C[C@H](O)C[C@H]8C(=O)N[C@@H](C)c8ccc(-c9scnc9C)cc8)C(C)C)on7)CC5)CC6)nc4c3F)c12 (single isomer, unassigned)", "measured.on": "AsPC-1 HiBiT-KRASG12D (Homo sapiens, UniProt P01116, G12D)", "Dmax": "80 to 100%"}

====

- measured.on: AsPC-1 HiBiT-KRASG12D (Homo sapiens, UniProt P01116, G12D)
- Construct: insert the HiBiT tag onto the N-terminus of one or more of the endogenous KRAS alleles; endogenous in cells; host or cells: AsPC-1 (ATCC CRL-1682), CRISPR-Cas9 knock-in clone, one tagged allele
- measurement.protocol: HiBiT degradation assay (G12D), AsPC-1 HiBiT-KRASG12D cells
- Format: cell-based
- run.parameters: ASPC1, AsPC-1 HiBiT-KRASG12D cells, 24 hours treatment, maximum degradation observed
Listing: Dmax of selected compounds
measured.property: Dmax

{"compound": "CCc1cccc2cc(O)cc(-c3ncc4c(N5CC6CCC(C5)N6)nc(OC[C@]56CCCN5[C@@H](COC(=O)N(C)Cc5cc([C@@H](C(=O)N7C[C@H](O)C[C@H]7C(=O)N[C@@H](C)c7ccc(-c8scnc8C)cc7)C(C)C)on5)CC6)nc4c3F)c12 [Compound 93]", "measured.result": "20 to 60%"}
{"compound": "CCc1cccc2cc(O)cc(-c3ncc4c(N5CC6CCC(C5)N6)nc(OC[C@]56CCCN5[C@H](COC(=O)N5CCC(Oc7cc([C@H](C(=O)N8C[C@H](O)C[C@H]8C(=O)N[C@@H](C)c8ccc(-c9scnc9C)cc8)C(C)C)on7)CC5)CC6)nc4c3F)c12 [Compound 116]", "measured.result": "80 to 100%"}
{"compound": "CCc1cccc2cc(O)cc(-c3ncc4c(N5CC6CCC(C5)N6)nc(OC[C@]56CCCN5[C@H](COC(=O)N5CCC(Oc7cc([C@@H](C(=O)N8C[C@H](O)C[C@H]8C(=O)N[C@@H](C)c8ccc(-c9scnc9C)cc8)C(C)C)on7)CC5)CC6)nc4c3F)c12 [Compound 119]", "measured.result": "20 to 60%"}
{"compound": "CCc1cccc2cc(O)cc(-c3ncc4c(N5CC6CCC(C5)N6)nc(OCCN5CCC6(CC5)CN(c5cc([C@H](C(=O)N7C[C@H](O)C[C@H]7C(=O)NCc7ccc(-c8scnc8C)cc7)C(C)C)on5)C6)nc4c3F)c12 (relative stereo) [Compound 98]", "measured.result": "80 to 100%"}
{"compound": "Cc1ncsc1-c1ccc([C@H](C)NC(=O)[C@@H]2C[C@@H](O)CN2C(=O)[C@@H](c2cc(N3CCN(C(=O)OC[C@H]4CC[C@@]5(COc6nc(N7CC8CCC(C7)N8)c7cc(Cl)c(-c8cc(O)cc9ccccc89)c(F)c7n6)CCCN45)CC3)no2)C(C)C)cc1 (single isomer, unassigned) [Compound 329]", "measured.result": "80 to 100%"}
{"compound": "CCc1cccc2cc(O)cc(-c3ncc4c(N5CC6CCC(C5)N6)nc(OCCN5CCC(CCC6CN(c7cc([C@@H](C(=O)N8C[C@H](O)C[C@H]8C(=O)N[C@@H](C)c8ccc(-c9scnc9C)cc8)C(C)C)on7)C6)CC5)nc4c3F)c12 (single isomer, unassigned) [Compound 253]", "measured.result": "20 to 60%"}
{"compound": "CCc1cccc2cc(O)cc(-c3ncc4c(N5CC6CCC(C5)N6)nc(OC[C@@]56CCCN5[C@H](CN5CCC(COc7cc([C@H](C(=O)N8C[C@H](O)C[C@H]8C(=O)N[C@@H](C)c8ccc(-c9scnc9C)cc8)C(C)C)on7)CC5)CC6)nc4c3F)c12 [Compound 96]", "measured.result": "80 to 100%"}
